System: Staphylococcus epidermidis
Assay: Antibacterial activity against Staphylococcus epidermidis ATCC 49134 after 18 hrs by microdilution method
Format: functional
Conditions: ATCC 49134, 18 h
The entries below are paired with their reported MIC.
Just the number in µg/mL, nothing appended.

{"smiles-str": "CO[C@H]1/C=C/O[C@@]2(C)Oc3c(C)c(O)c4c(O)c(c(CN[C@@H](Cc5ccccc5)C(=O)OC(C)(C)C)c(O)c4c3C2=O)NC(=O)/C(C)=C\\C=C\\[C@H](C)[C@H](O)[C@@H](C)[C@@H](O)[C@@H](C)[C@H](OC(C)=O)[C@@H]1C", "MIC, µg/mL": 0.25}

Input: Specify MIC for CCOC(=O)[C@H](Cc1ccccc1)NCc1c2c(O)c3c(O)c(C)c4c(c3c1O)C(=O)[C@@](C)(O/C=C/[C@H](OC)[C@@H](C)[C@@H](OC(C)=O)[C@H](C)[C@H](O)[C@H](C)[C@@H](O)[C@@H](C)/C=C/C=C(/C)C(=O)N2)O4 and stop.
Output: 0.125

Input: Supply recorded MIC for COC(=O)[C@H](Cc1cnc[nH]1)NCc1c2c(O)c3c(O)c(C)c4c(c3c1O)C(=O)[C@@](C)(O/C=C/[C@H](OC)[C@@H](C)[C@@H](OC(C)=O)[C@H](C)[C@H](O)[C@H](C)[C@@H](O)[C@@H](C)/C=C/C=C(/C)C(=O)N2)O4 here.
Output: 0.125

Input: // fetch MIC given entry CO[C@H]1/C=C/O[C@@]2(C)Oc3c(C)c(O)c4c(O)c(c(/C=N/N5CCN(C)CC5)c(O)c4c3C2=O)NC(=O)/C(C)=C\C=C\[C@H](C)[C@H](O)[C@@H](C)[C@@H](O)[C@@H](C)[C@H](OC(C)=O)[C@@H]1C
Output: 0.008
